Measured logP accompanies every entry in the list below.
test: Octanol/water partition coefficient, logP of the compound; assay type: physicochemical; conditions: read-out: logP
Respond using a number only.

Some compounds with recorded logP:
CC1(N2CCC2)CCC(NCC2CCN(Cc3ccccc3)C2)CC1 (configuration not stated)	3.4
c1ccc(-c2ccnc(C3CCN(CC45CNCC4C5)CC3)n2)cc1 (configuration not stated)	3.2
COc1ccc(-c2cncc(C(=O)NCC3CCN(CCN(C)C)CC3)c2)cc1	2.8
CN1CCN(CCCCNC2CC3CCC(C2)N3Cc2ccccc2)CC1 (configuration not stated)	3.1
Cc1cnccc1N1CCCN(Cc2ccccc2OCCN2CCN(C)CC2)CC1	3

**Query** If you can, please state the reported logP value of Cc1c(CN2CCC(O)(Cn3ccnc3)CC2)[nH]c2c(Cl)cccc12 .
**Result** 3.6

**Query** How about this compound: CN1CCC(Oc2ccc(NC(=O)c3cn4ccnc4s3)cn2)CC1
**Result** 2

----------
assay: Kinetic solubility of compound in 1-Octanol/PBS at pH 7.4 at 200 uM incubated for 2 hrs by shake flask method; format: physicochemical; conditions: read-out: Kinetic_solubility
Measured solubility kinetic at 2 h, 200 µM accompanies every entry in the list below.
Give your result in µM as a bare value.

Some compounds with recorded solubility kinetic at 2 h, 200 µM:
c1ccc(-c2ccnc(C3CCN(CC45CNCC4C5)CC3)n2)cc1 (stereo not drawn)	200
CN1CCC(Oc2ccc(NC(=O)c3cn4ccnc4s3)cn2)CC1	200

Proceed to the following item.
**Query** If you can, please state the reported solubility kinetic at 2 h, 200 µM value of CN1CCN(CCCCNC2CC3CCC(C2)N3Cc2ccccc2)CC1 (stereo not drawn) .
**Result** 200
